# collection of Log AP values tested on Opioid receptor (Mus musculus) (UniProt P42866+P32300+P33534)
# Sequence (P32300 whole entry, looked up): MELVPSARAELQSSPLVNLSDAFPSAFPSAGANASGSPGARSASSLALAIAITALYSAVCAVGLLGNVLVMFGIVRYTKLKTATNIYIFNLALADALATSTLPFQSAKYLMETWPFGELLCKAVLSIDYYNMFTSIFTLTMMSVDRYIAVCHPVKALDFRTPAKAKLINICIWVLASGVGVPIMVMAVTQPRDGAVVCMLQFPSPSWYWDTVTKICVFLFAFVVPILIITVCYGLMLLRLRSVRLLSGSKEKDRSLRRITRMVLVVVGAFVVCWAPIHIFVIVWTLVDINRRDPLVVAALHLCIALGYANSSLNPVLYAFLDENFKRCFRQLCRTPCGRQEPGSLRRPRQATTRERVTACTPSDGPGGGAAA
# Sequence (P33534 whole entry, looked up): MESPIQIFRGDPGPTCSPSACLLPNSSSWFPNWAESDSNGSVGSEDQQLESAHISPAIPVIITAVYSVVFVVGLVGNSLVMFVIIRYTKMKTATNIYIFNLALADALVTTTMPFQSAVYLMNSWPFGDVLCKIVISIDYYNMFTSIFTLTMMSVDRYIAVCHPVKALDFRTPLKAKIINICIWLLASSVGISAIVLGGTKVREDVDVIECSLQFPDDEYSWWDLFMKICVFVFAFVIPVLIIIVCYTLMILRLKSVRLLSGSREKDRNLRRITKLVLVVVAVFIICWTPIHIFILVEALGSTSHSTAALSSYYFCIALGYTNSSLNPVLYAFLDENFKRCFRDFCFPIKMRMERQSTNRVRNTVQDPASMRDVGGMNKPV
# Sequence (P42866 whole entry, looked up): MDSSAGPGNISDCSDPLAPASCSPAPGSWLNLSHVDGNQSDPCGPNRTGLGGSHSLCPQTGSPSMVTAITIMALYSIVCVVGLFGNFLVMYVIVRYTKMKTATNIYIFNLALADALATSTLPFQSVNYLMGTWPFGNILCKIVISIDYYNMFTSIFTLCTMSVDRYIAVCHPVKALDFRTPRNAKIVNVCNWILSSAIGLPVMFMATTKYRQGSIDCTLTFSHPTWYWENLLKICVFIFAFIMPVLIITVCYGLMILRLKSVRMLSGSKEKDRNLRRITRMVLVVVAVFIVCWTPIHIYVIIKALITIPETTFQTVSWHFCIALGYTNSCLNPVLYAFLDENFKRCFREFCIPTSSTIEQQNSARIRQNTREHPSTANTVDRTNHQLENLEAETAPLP

molecule: C[C@H]1CCC[C@]23CCN(C)[C@H](Cc4ccc(O)cc42)C13 (stereo partly specified)
Log AP: 5.32

molecule: C[C@H]1CCC[C@]23CCN(CC4CCC4)[C@H](Cc4ccc(O)cc42)C13 (stereo in doubt; 41)
Log AP: 6.6

molecule: CC[C@H]1CCC2Oc3c(OC)ccc4c3[C@@]23CCN(C)[C@H](C4)C13 (stereo partly specified)
Log AP: 5.72

molecule: C[C@H]1CC(=O)C[C@]23CCN(C)[C@H](Cc4ccc(O)cc42)[C@@H]13
Log AP: 6.32

molecule: COc1ccc2c(c1)[C@@]13CCC(C)[C@H](C)C1[C@@H](C2)N(CC1CCC1)CC3 (stereo partly specified)
Log AP: 5.25

molecule: Oc1ccc2c3c1O[C@H]1CCCC4[C@@H](C2)N(CC2CC2)CC[C@@]341 (stereo partly specified)
Log AP: 5.37

molecule: Oc1ccc2c(c1)[C@@]13CCCC[C@H]1[C@@H](C2)N(CC1CC1)CC3
Log AP: 5.16

molecule: COc1ccc2c3c1OC1CC[C@H](C)C4[C@@H](C2)N(C)CC[C@]314 (stereo partly specified)
Log AP: 5.45

molecule: C[C@H]1CCC[C@]23CCN(C)[C@H](Cc4ccc(O)cc42)[C@H]13
Log AP: 5.12

molecule: CC1CC[C@]23CCN(CC4CCC4)[C@H](Cc4ccc(O)cc42)C3C1 (stereo partly specified)
Log AP: 6.71

molecule: COc1ccc2c3c1O[C@H]1CC(C)CC4[C@@H](C2)N(C)CC[C@@]341 (stereo partly specified)
Log AP: 5.71

molecule: COc1ccc2c(c1)[C@@]13CCC[C@H](C)C1[C@@H](C2)N(CC1CC1)CC3 (stereo partly specified)
Log AP: 6.59

molecule: CN1CC[C@]23CCCCC2C1Cc1ccc(O)cc13 (stereo partly specified)
Log AP: 5.99

molecule: CC1CC[C@]23CCN(CC4CCC4)[C@H](Cc4ccc(O)cc42)C3[C@H]1C (stereo in doubt; 20)
Log AP: 6.95

molecule: COc1ccc2c(c1)[C@@]13CCCCC1[C@@H](C2)N(CC1CCC1)CC3 (stereo partly specified)
Log AP: 6.09

molecule: C[C@H]1CCC[C@]23CCN(CC4CC4)[C@H](Cc4ccc(O)cc42)C13 (stereo partly specified)
Log AP: 4.81
